Cited source: PubChem BioAssay

assaySummary: CREB reporter modulators under forskolin, primary screen, cell-based, PC12, CRE-LacZ reporter, forskolin-stimulated (AID 1146);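 note: PC12 cells with 6xCRE LacZ reporter stimulated by forskolin 10 µM; beta-galactosidase reporter signal reflecting CREB driven transcription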
measurementConditions: luminescence, 4.5 h, higher = more signal, called active from +8 up or from −8 down
The source made the active and inactive calls.
quantityMeasured: z-score

1) Cc1cc2c(nc1C)CCCCN2CC(C)ON=C1[C@H]2CCn3c(=O)n(-c4ccccc4)c(=O)n3[C@H]2[C@H](O)[C@@H]2O[C@H]12 (stereo partly specified) ... -0.379 (inactive)
2) CC[C@@H](c1ccccc1)n1c(=O)n2n(c1=O)[C@H]1[C@H](O)[C@@H]3O[C@@H]3C(=NOC[C@@H](O)COCc3ccco3)[C@H]1CC2 ... 0.427 (inactive)
3) CON=C1[C@H]2CCn3c(=O)n(-c4ccccc4)c(=O)n3[C@H]2[C@H](O)[C@@H]2O[C@H]12 ... 0.236 (inactive)
4) CC(C)CON=C1C[C@@H](O)[C@@H](O)[C@@H]2[C@@H]3C(=O)N(c4ccc(F)cc4F)C(=O)[C@@H]3CC[C@H]12 ... -0.907 (inactive)
5) C[C@@H](ON=C1[C@H]2CCn3c(=O)n(-c4ccccc4)c(=O)n3[C@H]2[C@H](O)[C@@H]2O[C@H]12)c1cn([C@@H]2COC[C@H]2O)nn1 ... 0.258 (inactive)

Q) Query: z-score; subject: CCOC(=O)[C@H](CC(C)C)NC(=O)CCC1CC(OC(=O)NCCc2ccc(F)cc2)CC2(CCCC(COC(=O)NCCC(C)C)O2)O1 (stereo partly specified)
A) -0.457 (inactive)
